These data points were gathered from PubChem BioAssay (NCI).

- Test system: NCI-H322M lung
- TEST_SUMMARY: NCI-60 one-dose screen, 48 h (100 = growth as untreated, 0 = no growth, -100 = all killed)
- TEST_PARAMETERS: 10 µM unless noted
- Protocol: Growth inhibition of the NCI-H322M human Non-Small Cell Lung tumor cell line is measured as a screen for anti-cancer activity. Cells are grown in 96 well plates and exposed to the test compound for 48 hours. Compounds are tested at a single concentration, which is 10^-5 M for most compounds. The reported endpoint is percent growth (GI% or GIPRCNT), where numbers from 0 - 100% represent growth inhibition, and numbers from -100% - 0 represent cell death. […]
About 83,000 compounds went through this panel and 20% of them were active in at least one assay; those are over-represented in the sample as a whole.
# key: entry, value: growth
Entry rule: numbers only, all in %.

[
  {
    "COMPOUND": "CC(C)CCOc1ccc(-c2n[nH]c(C(F)(F)F)c2-c2cncc(C#N)c2)c(O)c1",
    "PARAMETER": "growth",
    "UNITS_OF_MEASURE": "%",
    "VAL": 12.4
  },
  {
    "COMPOUND": "Cn1c(/C=C(\\C#N)c2ccccc2)nc2c(N3CCOCC3)nc(Cl)nc21",
    "PARAMETER": "growth",
    "UNITS_OF_MEASURE": "%",
    "VAL": 65.9
  },
  {
    "COMPOUND": "Cc1ccc(C(=O)c2oc3ccc4c(C)cc(=O)oc4c3c2C)cc1",
    "PARAMETER": "growth",
    "UNITS_OF_MEASURE": "%",
    "VAL": 63.1
  },
  {
    "COMPOUND": "O=C1CCC(N2C(=O)c3cccc(NCCCCCCOc4ccc(Nc5nccc(Nc6ccccc6)n5)cc4)c3C2=O)C(=O)N1 (stereo not given)",
    "PARAMETER": "growth",
    "UNITS_OF_MEASURE": "%",
    "VAL": 91.6
  },
  {
    "COMPOUND": "O=S1(=O)CCN(Cc2ccccc2)CC1",
    "PARAMETER": "growth",
    "UNITS_OF_MEASURE": "%",
    "VAL": 110
  }
]

Incoming: Please give the measured growth for this compound: Cc1ccc2nc(NC(=O)CSC(=S)N3CCN(c4ccccc4)CC3)sc2c1
Outgoing: 92.9

Incoming: Likewise for CSc1nc2c(c(=O)n1C)N=C1c3ccccc3C(=O)C1C(c1ccccc1)N2 (stereo not given) ?
Outgoing: 95.1

Incoming: Follow-up entry: NS(=O)(=O)c1ccc(CCN=C=S)cc1
Outgoing: 85.2

Incoming: Same lookup for Cc1ccc(F)cc1NC(=O)c1cc(Cl)ccc1Nc1ccccc1 , please.
Outgoing: 62.4

Incoming: Can you check O=C(Cc1ccccc1)NC(c1ccc(Cl)cc1)c1c(O)ccc2ccccc12 (stereo not given) next?
Outgoing: 15.4

Incoming: Cool, now O=C(/C=C/c1ccc(F)cc1)c1ccc(Nc2nc(NCCO)nc(Nc3ccc(Cl)cc3)n2)cc1
Outgoing: 93.1

Incoming: // query: COc1ccc(CCN2CCC(CN(C)Cc3cnn(-c4ccccc4)c3)CC2)cc1
Outgoing: 46.4

Incoming: Another compound to look at: Oc1[nH]c2ccccc2c1N=Nc1nnc2n1N=C(c1ccccc1)CS2
Outgoing: 104

Incoming: Can you check Nc1ccc(-c2nn3c(CCC(=O)c4nc5ncccc5[nH]4)nnc3s2)c(O)c1 next?
Outgoing: 87.5

* * *

- Tested on: SNB-19 CNS
- TEST_SUMMARY: NCI-60 one-dose screen, 48 h (100 = growth as untreated, 0 = no growth, -100 = all killed)
- TEST_PARAMETERS: 10 µM unless noted
Compounds without any hit were thinned out: in the full panel of roughly 83,000, 20% have a hit. The source made the active and inactive calls. Rule for the calls: active = growth percent below 10; inactive = the rest.
Listed below: growth values for each entry.

Solved cases below.
[
  {
    "COMPOUND": "Cc1ccc(N=NC2C(=O)N(c3ccc(Cl)cc3)N(c3ccc(Cl)cc3)C2=O)cc1",
    "growth": "91.1% (inactive)"
  },
  {
    "COMPOUND": "CC1(O)COCCCCOc2c(CN)cccc2NC(=O)c2nc(cnc2N)-c2ccc(cc2)S(=O)(=O)C(C)(C)C1 (stereo not drawn)",
    "growth": "-55.9% (active)"
  }
]

Incoming: Quick one: growth for CN1C(=O)N(C)C2C1NN=c1s/c(=C\c3ccc(Cl)cc3Cl)c(=O)n12 (stereo not drawn) ?
Outgoing: 26.5% (inactive)

Incoming: Now this one: OCCNc1nc(Nc2ccc(C3=NN(c4cc(Cl)cc(Cl)c4)C(c4ccc(C(F)(F)F)cc4)C3)cc2)nc(N2CCOCC2)n1 (stereo not drawn)
Outgoing: 87.6% (inactive)

Incoming: Then this compound: CN1CCN(Cc2ccc(NC(=O)c3cncc(C#Cc4nc(N)nc5[nH]ncc45)c3)cc2C(F)(F)F)CC1
Outgoing: 108% (inactive)

Incoming: Then what about the compound COc1ccc(N)c(-c2cc3c(c4c2[nH]c2ccc(OC)cc24)CCCC3)c1 ?
Outgoing: 88.5% (inactive)

Incoming: // repeat for COc1ccccc1N1C(=N)S/C(=C\c2ccc(OCc3ccccc3F)cc2)C1=O and report
Outgoing: 90.9% (inactive)

Incoming: And then CCCSC1=NC2C(N(CC)C(=O)N2CC)N1/N=C/C=C/c1ccccc1[N+](=O)[O-] (stereo not drawn) , what is it?
Outgoing: 29.6% (inactive)

Incoming: Try Cc1cccc2c(=O)c3c(sc12)c(N1CCNCC1)nc1ccccc13 next.
Outgoing: 82.6% (inactive)

Incoming: // same read-out, input: O=C1Nc2ccccc2/C1=C/c1ccc[nH]1
Outgoing: 90.3% (inactive)

Incoming: Next: Cc1[nH]c2ccccc2c(=O)c1CC=C(Cl)Cl
Outgoing: 56.7% (inactive)

Incoming: Try the compound COc1ccc(Nc2nc(N/N=C/c3ccc(O)cc3)nc(Nc3ccc([N+](=O)[O-])cc3)n2)cc1
Outgoing: 101% (inactive)

Incoming: Note, next up: COc1ccc(C2=NN(/C=C3\SC(=O)NC3=Nc3ccc(F)cc3)C(c3ccc(F)cc3)C2)cc1 (stereo not drawn)
Outgoing: 95.1% (inactive)

Incoming: Same lookup for Oc1c(C(Nc2ccccn2)c2cccc(Oc3ccccc3)c2)ccc2cccnc12 (stereo not drawn) , please.
Outgoing: -80.7% (active)

Incoming: Repeat for the following compound: COc1ccc(Cn2cc(Cn3c(=O)c(-c4nc5ccccc5[nH]4)cc4ccccc43)nn2)c(OC)c1OC
Outgoing: 22.8% (inactive)

Incoming: Then this compound: COc1ccc(S(=O)(=O)N(Cc2ccc3c(n2)C=CC(C)(C)O3)C2CCC2)cc1OC
Outgoing: 8.75% (active)

* * *

- System: HS 578T breast
- TEST_SUMMARY: NCI-60 one-dose screen, 48 h
- TEST_PARAMETERS: 10 µM unless noted
The panel holds about 83,000 compounds, 20% with a hit somewhere; the sample as a whole holds those more often. Active and inactive are the calls of the source. How the source made its calls: active means growth percent below 10; inactive means the rest.
Allowed answers: active, inactive

As a guide, the following entries are already answered.
[
  {
    "COMPOUND": "COc1ccc2c(c1)C=C1CSCC3=Cc4cc(OC)ccc4OC13O2",
    "DISCRETE_LABEL": "active"
  },
  {
    "COMPOUND": "COc1cccc(C(=O)NC(c2ccc(C)cc2)c2cc(Cl)c3cccnc3c2O)c1 (stereo not drawn)",
    "DISCRETE_LABEL": "inactive"
  },
  {
    "COMPOUND": "O=C(Nc1ccc(F)cc1F)c1cc(Br)ccc1O",
    "DISCRETE_LABEL": "inactive"
  }
]

Incoming: Could you check what this test reported for Oc1c(CN2CCN(c3ccccc3F)CC2)cc(Br)c2cccnc12 ?
Outgoing: active

Incoming: Okay, and COc1cc(C2C(C#N)=C(N)OC3=C2C(=O)c2ccccc2C3=O)cc(OC)c1OC (stereo not drawn) ?
Outgoing: active

Incoming: Please do the same for COC(=O)/C(CCC=C(C)C)=C1\[C@@H](OC(C)=O)C[C@@]2(C)[C@H]1CC(=O)N[C@H]1[C@@]3(C)CCNC(=O)[C@@H](C)[C@@H]3CC[C@@]12C as well.
Outgoing: inactive

* * *

- Tested on: CCRF-CEM leukemia
- TEST_SUMMARY: NCI-60 one-dose screen, 48 h (100 = growth as untreated, 0 = no growth, -100 = all killed)
- TEST_PARAMETERS: 10 µM unless noted
The panel holds about 83,000 compounds, 20% with a hit somewhere; the sample as a whole holds those more often.
Binning of growth into classes: low group: < 40%; middle group: ≥ 40% and < 90%; high group: ≥ 90%

Record excerpt, results attached:
[
  {
    "COMPOUND": "O=C(CCc1nnc2sc(Cc3ccccc3Cl)nn12)c1nc2ncccc2[nH]1",
    "DISCRETE_LABEL": "high group"
  },
  {
    "COMPOUND": "CCCN1C(=O)N(CCC)C2C1NN=c1s/c(=C3\\C(=O)N(C(C)C)c4ccccc43)c(=O)n12 (stereo unspecified)",
    "DISCRETE_LABEL": "middle group"
  },
  {
    "COMPOUND": "Cc1cc2c(c(C)c1Cl)C(=O)/C(=C/c1ccco1)O2",
    "DISCRETE_LABEL": "high group"
  },
  {
    "COMPOUND": "CC1=C(C(=O)OCC2CCN(C(=O)OC(C)(C)C)CC2)[C@H](c2cccc(Br)c2)C2=C(CC(C)(C)CC2=O)N1",
    "DISCRETE_LABEL": "low group"
  },
  {
    "COMPOUND": "O=C1c2cc(Cl)ccc2Oc2cc([N+](=O)[O-])ccc2N1c1ccc(F)cc1F",
    "DISCRETE_LABEL": "middle group"
  },
  {
    "COMPOUND": "O=c1c(-c2nc3ccccc3[nH]2)cc2ccccc2n1Cc1cn(Cc2ccc(F)cc2)nn1",
    "DISCRETE_LABEL": "low group"
  },
  {
    "COMPOUND": "Cc1ccc(Nc2nc(N)c3ccccc3n2)cc1Cl",
    "DISCRETE_LABEL": "middle group"
  },
  {
    "COMPOUND": "COc1c(B(O)O)cccc1-c1nc2ccc3n[nH]c(F)c3c2c2c1CCCC2",
    "DISCRETE_LABEL": "low group"
  }
]

Incoming: For this compound, which bin applies? CCOC(=O)c1cc2c(n1Cc1ccccc1)-c1oncc1CCC2
Outgoing: middle group

Incoming: What do you get for Cc1nc2ccccc2c(/C=C/c2ccccc2)c1C(=O)/C=C/c1ccc(Cl)cc1 ?
Outgoing: low group

Incoming: Further, for NNC(=O)CNC(=O)Nc1n[nH]c(=S)s1 ?
Outgoing: high group
